Assay: Measurement of salt solubility: salts of 1-11 formed in situ and suspended in water, HPLC (UV-Vis)
Type: physicochemical
Details: free base plus 1.05-1.1 molar equivalence of acid, suspended in water for several days; method overestimates the solubility
Protocol: The solid free base was treated with a concentrated solution of the appropriate acid (1.05-1.1 molar equivalence) and suspended in water for several days. The pH and concentration of the compound in equilibrium with the solid phase was measured by HPLC (UV-Vis detection). This method overestimates the solubility of the salt due to the 5-10% excess of the acid that is added in the preparation of the salts. […]
Where a name gives a salt, the structure may show the parent alone.
For each entry below, report its Solubility value.
Write the answer as a number in µg/mL, unit excluded.

Inquiry: Fill in Solubility for record CS(=O)(=O)N1CCN(Cc2ccc3[nH]c(-c4cc5ccccc5[nH]c4=O)cc3c2)CC1 [Mesylate salt of 1-11]
Reply text: 580

Inquiry: Name the recorded Solubility of the compound listed here: CS(=O)(=O)N1CCN(Cc2ccc3[nH]c(-c4cc5ccccc5[nH]c4=O)cc3c2)CC1 [Citrate salt of 1-11]
Reply text: 110

Inquiry: Please report the measured Solubility for CS(=O)(=O)N1CCN(Cc2ccc3[nH]c(-c4cc5ccccc5[nH]c4=O)cc3c2)CC1 [Sulfate salt of 1-11]
Reply text: 130

Inquiry: // Input: CS(=O)(=O)N1CCN(Cc2ccc3[nH]c(-c4cc5ccccc5[nH]c4=O)cc3c2)CC1 [Maleate salt of 1-11] . Output its Solubility only.
Reply text: 160

Inquiry: Report Solubility for CS(=O)(=O)N1CCN(Cc2ccc3[nH]c(-c4cc5ccccc5[nH]c4=O)cc3c2)CC1 [HBr salt of 1-11]
Reply text: 200

Inquiry: In one line, give reported Solubility of the entry CS(=O)(=O)N1CCN(Cc2ccc3[nH]c(-c4cc5ccccc5[nH]c4=O)cc3c2)CC1 [Acetate salt of 1-11] .
Reply text: 91

Inquiry: Return value of Solubility for input CS(=O)(=O)N1CCN(Cc2ccc3[nH]c(-c4cc5ccccc5[nH]c4=O)cc3c2)CC1 [HCl salt of 1-11] , no commentary.
Reply text: 430

Inquiry: Assign Solubility to the following record: CS(=O)(=O)N1CCN(Cc2ccc3[nH]c(-c4cc5ccccc5[nH]c4=O)cc3c2)CC1 [Besylate salt of 1-11]
Reply text: 3.8

---

assay: Solubility of isolated crystalline salts of 1-11 in water and organic solvents; format: physicochemical; settings: ethanol, organic solvent or mixture, thermodynamic from solid, RT for 7 days
Counter-ions that a name gives are not always drawn.
measurement-label: solubility at 7 days
Could you write the number and then its unit?

Inquiry: // Input: CS(=O)(=O)N1CCN(Cc2ccc3[nH]c(-c4cc5ccccc5[nH]c4=O)cc3c2)CC1 [Salt 1-11D] . Output its solubility at 7 days only.
Reply text: 130 µg/mL

---

assay: Solubility of isolated crystalline salts of 1-11 in water and organic solvents; type: physicochemical; settings: aqueous ETOH, aqueous with cosolvent or surfactant or cyclodextrin, thermodynamic from solid, RT for 7 days
Counter-ions that a name gives are not always drawn.
measurement-label: solubility at 7 days (µg/mL)
Quick reminder: number only, in µg/mL, skip the unit.

Inquiry: Look up and state reported solubility at 7 days for CS(=O)(=O)N1CCN(Cc2ccc3[nH]c(-c4cc5ccccc5[nH]c4=O)cc3c2)CC1 [Salt 1-11D]
Reply text: 4340
